tested-on: Histone deacetylase 5 (Homo sapiens, UniProt Q9UQL6)
Sequence (Q9UQL6 whole entry): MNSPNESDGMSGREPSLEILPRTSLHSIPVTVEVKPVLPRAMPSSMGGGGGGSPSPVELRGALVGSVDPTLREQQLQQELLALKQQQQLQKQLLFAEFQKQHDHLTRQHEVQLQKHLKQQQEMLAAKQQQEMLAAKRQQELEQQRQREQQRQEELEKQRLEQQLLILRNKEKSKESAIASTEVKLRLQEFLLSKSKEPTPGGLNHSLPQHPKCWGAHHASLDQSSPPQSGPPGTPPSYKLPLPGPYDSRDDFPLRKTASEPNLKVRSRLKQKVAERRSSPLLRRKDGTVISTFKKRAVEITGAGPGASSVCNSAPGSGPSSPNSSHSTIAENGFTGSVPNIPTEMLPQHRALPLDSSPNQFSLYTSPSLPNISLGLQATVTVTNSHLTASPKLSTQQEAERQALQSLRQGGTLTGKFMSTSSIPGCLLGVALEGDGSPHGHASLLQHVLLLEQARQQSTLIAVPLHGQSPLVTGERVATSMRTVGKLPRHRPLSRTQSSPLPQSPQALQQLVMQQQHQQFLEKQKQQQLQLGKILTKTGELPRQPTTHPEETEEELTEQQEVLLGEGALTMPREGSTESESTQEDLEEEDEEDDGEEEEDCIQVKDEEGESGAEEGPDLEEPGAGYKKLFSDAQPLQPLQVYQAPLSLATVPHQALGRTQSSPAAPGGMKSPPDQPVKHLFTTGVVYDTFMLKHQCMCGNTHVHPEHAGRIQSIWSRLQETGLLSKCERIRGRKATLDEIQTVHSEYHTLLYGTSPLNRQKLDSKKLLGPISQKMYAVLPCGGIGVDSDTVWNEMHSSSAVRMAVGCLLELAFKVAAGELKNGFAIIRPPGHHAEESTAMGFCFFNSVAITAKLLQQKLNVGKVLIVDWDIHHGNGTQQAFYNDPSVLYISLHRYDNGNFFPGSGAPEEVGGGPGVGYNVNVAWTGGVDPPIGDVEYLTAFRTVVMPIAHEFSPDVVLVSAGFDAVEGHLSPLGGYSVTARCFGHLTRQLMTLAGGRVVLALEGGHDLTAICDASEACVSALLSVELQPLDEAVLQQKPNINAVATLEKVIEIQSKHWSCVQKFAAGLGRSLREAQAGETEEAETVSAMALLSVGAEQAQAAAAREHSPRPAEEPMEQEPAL
measured-metric: pIC50
One number for each entry, as −log10 of the molar value.

So what's the measured pIC50 for this one? `O=C(NCCN1CCCC1)c1ccc(-c2noc(C(F)(F)F)n2)cc1`
7.05

----------
method-description: Volume of distribution in C57BL/6J mouse at 3.3 mg/kg, iv by LC-MS/MS analysis
Type: ADME, organism-based
reported-conditions: in vivo
measured-metric: Vd (L/kg)
Numbers only, in L/kg.

Given `C[C@H](CN1CCC[C@@H]1C)NC(=O)c1ccc(-c2noc(C(F)(F)F)n2)cc1` , state its recorded Vd.
3.8

----------
tested-on: Histone deacetylase 4 (Homo sapiens, UniProt P56524)
Sequence (P56524 whole entry): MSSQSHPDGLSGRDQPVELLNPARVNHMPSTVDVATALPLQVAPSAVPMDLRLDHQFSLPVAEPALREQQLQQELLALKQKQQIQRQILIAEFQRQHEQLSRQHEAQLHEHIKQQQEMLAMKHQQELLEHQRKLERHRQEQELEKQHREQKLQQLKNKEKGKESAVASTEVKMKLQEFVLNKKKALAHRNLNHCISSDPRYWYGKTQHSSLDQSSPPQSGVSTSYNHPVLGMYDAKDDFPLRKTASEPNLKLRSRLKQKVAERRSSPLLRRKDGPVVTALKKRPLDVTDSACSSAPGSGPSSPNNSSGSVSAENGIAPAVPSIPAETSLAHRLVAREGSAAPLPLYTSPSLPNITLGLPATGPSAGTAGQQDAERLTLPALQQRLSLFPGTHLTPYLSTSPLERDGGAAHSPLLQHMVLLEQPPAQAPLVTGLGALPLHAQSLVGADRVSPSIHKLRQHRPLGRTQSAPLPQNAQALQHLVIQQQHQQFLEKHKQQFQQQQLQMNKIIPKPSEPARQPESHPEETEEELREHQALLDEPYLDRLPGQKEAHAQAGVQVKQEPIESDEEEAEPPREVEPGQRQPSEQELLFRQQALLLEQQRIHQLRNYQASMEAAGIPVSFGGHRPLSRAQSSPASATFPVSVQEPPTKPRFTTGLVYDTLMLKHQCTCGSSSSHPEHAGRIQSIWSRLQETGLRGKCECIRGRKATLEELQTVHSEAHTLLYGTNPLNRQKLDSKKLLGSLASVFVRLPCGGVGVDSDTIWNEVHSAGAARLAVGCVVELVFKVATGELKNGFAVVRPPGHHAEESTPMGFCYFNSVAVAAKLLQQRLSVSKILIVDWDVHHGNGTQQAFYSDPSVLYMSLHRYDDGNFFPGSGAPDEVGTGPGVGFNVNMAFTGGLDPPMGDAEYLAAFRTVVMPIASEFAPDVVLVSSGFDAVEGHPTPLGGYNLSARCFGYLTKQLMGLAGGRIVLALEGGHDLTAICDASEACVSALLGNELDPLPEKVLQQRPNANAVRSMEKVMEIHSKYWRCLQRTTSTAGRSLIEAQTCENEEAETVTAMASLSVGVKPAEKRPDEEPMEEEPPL
method-description: Inhibition of HDAC4 (unknown origin) using Boc Lys(TFA) as substrate by fluorogenic assay
Exercise: state measured pIC50 for each of the molecules provided.
One number for each entry, as −log10 of the molar value.

Please look up its pIC50: `C[C@H](CN1CCCCCC1)NC(=O)c1ccc(-c2noc(C(F)(F)F)n2)cc1`
8.00

Dear colleague, could you send me pIC50 for each of the items below? Thanks.
1. C[C@H](CN1CCC[C@@H]1C)NC(=O)c1ccc(-c2noc(C(F)(F)F)n2)cc1
2. CCCN(CCC)C[C@@H](C)NC(=O)c1ccc(-c2noc(C(F)F)n2)cc1
3. C[C@H](CN1CCC(F)(F)C1)NC(=O)c1ccc(-c2noc(C(F)(F)F)n2)cc1
4. CCCN(CCC)C[C@@H](C)NC(=O)c1ccc(-c2nc(C(F)(F)F)no2)cc1
5. C[C@H](CN1CCC(F)(F)CC1)NC(=O)c1ccc(-c2noc(C(F)(F)F)n2)cc1
6. C[C@H](CN1CCC[C@@H](OC(F)F)C1)NC(=O)c1ccc(-c2noc(C(F)(F)F)n2)cc1
7. C[C@H](CN1CCC[C@H](OC(F)F)C1)NC(=O)c1ccc(-c2noc(C(F)(F)F)n2)cc1

8.00
6.05
6.64
4.55
6.89
7.70
8.52

----------
Answer each item with its documented IC50.
tested-on: Histone deacetylase 2 (Homo sapiens)
Sequence (Q92769 whole entry): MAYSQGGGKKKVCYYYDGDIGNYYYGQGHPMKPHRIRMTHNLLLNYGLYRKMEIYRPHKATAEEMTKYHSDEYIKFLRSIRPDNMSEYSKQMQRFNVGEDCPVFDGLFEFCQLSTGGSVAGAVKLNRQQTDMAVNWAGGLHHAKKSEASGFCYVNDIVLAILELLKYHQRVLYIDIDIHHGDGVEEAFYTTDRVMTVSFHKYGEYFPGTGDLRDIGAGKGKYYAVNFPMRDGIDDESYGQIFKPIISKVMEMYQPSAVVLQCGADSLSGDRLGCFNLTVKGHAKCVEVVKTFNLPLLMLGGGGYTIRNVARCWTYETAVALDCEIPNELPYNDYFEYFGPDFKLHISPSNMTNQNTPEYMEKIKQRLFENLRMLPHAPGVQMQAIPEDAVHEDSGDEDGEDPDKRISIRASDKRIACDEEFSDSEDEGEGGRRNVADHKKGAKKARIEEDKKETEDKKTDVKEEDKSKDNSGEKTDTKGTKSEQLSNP
method-description: Inhibition of HDAC2 (unknown origin) using Ac-Arg-Gly-Lys(Ac) as substrate by fluorogenic assay
Numbers only, in µM.

Answered examples (2):
Look at this compound and give its reported IC50. `C[C@H](CN1CCC[C@@H]1C)NC(=O)c1ccc(-c2noc(C(F)(F)F)n2)cc1`
27

Entry `CCCN(CCC)C[C@@H](C)NC(=O)c1ccc(-c2noc(C(F)(F)F)n2)cc1` has what IC50?
9.3

Turning to the following compound.
Give its IC50 value. Item: `O=C(NCCN1CCCC1)c1ccc(-c2noc(C(F)(F)F)n2)cc1`
26

----------
method-description: Kinetic solubility of the compound
Type: physicochemical
reported-conditions: read-out: Kinetic_solubility
measured-metric: solubility kinetic (µM)
One number for each entry, in µM.

Illustrative cases are given below, each with its answer.
# get_value(readout='solubility kinetic', item= `O=C(NCCN1CCCC1)c1ccc(-c2noc(C(F)(F)F)n2)cc1` )
169

GET /values?readout=solubility kinetic&item= `C[C@H](CN1CCC[C@@H]1C)NC(=O)c1ccc(-c2noc(C(F)(F)F)n2)cc1`
166

Requested read-out: solubility kinetic. Entry: `C[C@H](CN1CCC(F)(F)C1)NC(=O)c1ccc(-c2noc(C(F)(F)F)n2)cc1`
52

State the recorded solubility kinetic for this entry: `C[C@H](CN1CCC(F)(F)CC1)NC(=O)c1ccc(-c2noc(C(F)(F)F)n2)cc1`
25

Give its solubility kinetic value. Item: `C[C@H](CN1CCCCC1)NC(=O)c1ccc(-c2noc(C(F)(F)F)n2)cc1`
157

Provide each entry's solubility kinetic from the list below.
1. C[C@H](CN1CCCC1)NC(=O)c1ccc(-c2noc(C(F)(F)F)n2)cc1
2. CCCN(CCC)C[C@@H](C)NC(=O)c1ccc(-c2noc(C(F)(F)F)n2)cc1
3. C[C@H](CN1CCCC(C)(C)C1)NC(=O)c1ccc(-c2noc(C(F)(F)F)n2)cc1
4. C[C@H](CN1CCC[C@H]1C)NC(=O)c1ccc(-c2noc(C(F)(F)F)n2)cc1
5. C[C@H](CN1CCC[C@H](OC(F)F)C1)NC(=O)c1ccc(-c2noc(C(F)(F)F)n2)cc1

1: 178; 2: 140; 3: 150; 4: 178; 5: 51

meta.source: ChEMBL document CHEMBL4680373
